From: patent US9464084B2

Target: P2X7 (Homo sapiens (Human))
Assay: Ca2+ flux (FLIPR) in 1321N1 cells expressing recombinant human P2X7 channel
Format: cell-based
Settings: 250 μM BzATP
Reported metric: IC50 (nM)

1) CN(C)C(=O)C1c2ncn(-c3ccccn3)c2CCN1C(=O)c1cccc(C(F)(F)F)c1Cl (centres unmarked) [Example 34]; 158
2) O=C(c1cccc(C(F)(F)F)c1Cl)N1CCc2[nH]nnc2C1c1ccccc1 (centres unmarked) [Example 78]; 63.1

[1] O=C(c1cccc(C(F)(F)F)c1Cl)N1CCc2c(nnn2-c2cc(F)ccn2)C1 [Example 131]
[2] CC1Cc2c(nnn2-c2ccc(F)cc2)C(C)N1C(=O)c1cccc(Cl)c1Cl (centres unmarked) [Example 242]
[3] C[C@H]1c2nnn(-c3cccc(F)n3)c2CCN1C(=O)c1cccc(C(F)(F)F)c1Cl (single isomer, unassigned) [Example 147]
[4] Cn1nc(-c2ccc(F)cc2)c2c1CN(C(=O)c1cccc(C(F)(F)F)c1Cl)CC2 [Example 106]
Arrange items by their IC50 values in increasing order. The reply should contain the labels ordered as requested.
1, 3, 2, 4

* * *

Molecular target: rat P2X7 (Rattus norvegicus (Rat), UniProt Q64663)
Sequence (Q64663 whole entry): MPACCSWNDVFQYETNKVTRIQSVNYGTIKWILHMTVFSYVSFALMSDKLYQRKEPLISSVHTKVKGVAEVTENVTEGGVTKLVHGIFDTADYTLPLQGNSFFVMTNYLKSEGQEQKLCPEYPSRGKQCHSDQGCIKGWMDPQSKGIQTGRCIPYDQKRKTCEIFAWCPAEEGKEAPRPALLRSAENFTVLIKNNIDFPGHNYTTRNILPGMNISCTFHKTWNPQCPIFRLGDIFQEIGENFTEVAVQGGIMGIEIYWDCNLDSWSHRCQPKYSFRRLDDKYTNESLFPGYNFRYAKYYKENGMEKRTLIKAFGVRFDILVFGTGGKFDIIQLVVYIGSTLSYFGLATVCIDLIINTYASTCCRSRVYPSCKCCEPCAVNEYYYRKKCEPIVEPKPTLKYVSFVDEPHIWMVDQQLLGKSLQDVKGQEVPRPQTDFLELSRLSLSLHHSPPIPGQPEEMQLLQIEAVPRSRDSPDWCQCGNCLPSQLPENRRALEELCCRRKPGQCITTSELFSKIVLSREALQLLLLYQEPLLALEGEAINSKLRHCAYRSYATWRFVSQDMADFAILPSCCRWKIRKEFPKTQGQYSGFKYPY
Assay: Ca2+ flux (FLIPR) in 1321N1 cells expressing recombinant rat P2X7 channel
Conditions: 250 μM BzATP
Reported metric: IC50 (µM)

1. Cc1cncc(-n2nnc3c2CCN(C(=O)c2cccc(C(F)(F)F)c2Cl)C3C)n1 (stereo not shown) [Example 251]; 9.11

[I] COc1cccnc1-n1nnc2c1CCN(C(=O)c1cccc(C(F)(F)F)c1Cl)C2C (stereo not shown) [Example 260]
[II] C[C@H]1Cc2c(nnn2-c2ncc(F)cn2)CN1C(=O)c1cc(F)cc(C(F)(F)F)c1 [Example 307]
Among I and II , whose measured IC50 is the smaller figure? Provide the label of your selected option as the answer.
I
(I: 6.93 µM, II: 10.7 µM)

* * *

Molecular target: P2X7 (Homo sapiens (Human), UniProt Q99572)
Sequence (Q99572 whole entry): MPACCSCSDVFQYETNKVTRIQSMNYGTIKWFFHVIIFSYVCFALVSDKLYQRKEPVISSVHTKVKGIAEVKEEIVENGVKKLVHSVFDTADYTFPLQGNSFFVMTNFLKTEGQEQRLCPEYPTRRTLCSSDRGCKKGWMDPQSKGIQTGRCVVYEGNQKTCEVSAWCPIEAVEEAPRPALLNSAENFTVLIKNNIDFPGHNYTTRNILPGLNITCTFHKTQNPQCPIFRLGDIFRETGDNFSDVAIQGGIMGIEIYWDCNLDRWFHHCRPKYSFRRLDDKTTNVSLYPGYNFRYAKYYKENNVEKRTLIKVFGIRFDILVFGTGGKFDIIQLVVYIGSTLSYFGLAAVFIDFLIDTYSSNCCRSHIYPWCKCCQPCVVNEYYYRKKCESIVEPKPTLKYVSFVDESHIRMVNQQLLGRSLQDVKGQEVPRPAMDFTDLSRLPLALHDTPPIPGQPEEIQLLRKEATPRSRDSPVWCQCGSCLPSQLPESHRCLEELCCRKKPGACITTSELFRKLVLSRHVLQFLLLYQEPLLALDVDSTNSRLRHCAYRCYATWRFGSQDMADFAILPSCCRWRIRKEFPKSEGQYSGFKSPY
Assay: P2X7 antagonism in human PBMCs (LPS + Bz-ATP induced IL-1β release, ELISA);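 further: PBMCs from donor human blood, with a further 1.5 h incubation of the cells in the assay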
Format: cell-based
Settings: compound 10 μM, LPS 30 ng/ml, Bz-ATP 0.5 mM
Reported metric: PBMC 10 μM (% control)

# count of solved cases: 3
1. CC1c2ncn(-c3ccc(F)cn3)c2CCN1C(=O)c1cccc(C(F)(F)F)c1F (stereo not shown); −3.6
2. C[C@@H]1Cc2c(nnn2-c2cc(F)ccn2)CN1C(=O)c1cccc(Cl)c1Cl (single isomer, unassigned); 14.4
3. C[C@H]1Cc2c(nnn2-c2ncc(F)cn2)CN1C(=O)c1cccc(C(F)(F)F)c1; 3.2

[I] C[C@H]1c2nnn(-c3ccn[nH]3)c2CCN1C(=O)c1cccc(C(F)(F)F)c1Cl (single isomer, unassigned)
[II] C[C@@H]1c2nnn(-c3ncc(F)cn3)c2CCN1C(=O)c1cccc(C(F)(F)F)c1Cl (single isomer, unassigned)
Sorting by PBMC 10 μM (% control) in descending order, would I or II appear first? Provide the label of your selected option as the answer.
I
(I: 12.3 % control, II: 1.1 % control)

[a] O=C(c1cccc(Cl)c1Cl)N1CCc2c(nnn2-c2cnccn2)C1
[b] CC1Cc2c(nnn2-c2ncc(F)cn2)CN1C(=O)c1cccc(C(F)(F)F)c1F (stereo not shown)
Sorting by PBMC 10 μM (% control) in descending order, would a or b appear first? Provide the label of your selected option as the answer.
b
(b: 63.6 % control, a: 10.6 % control)

* * *

Target: P2X7 (Homo sapiens (Human))
Assay: P2X7 antagonism in human PBMCs (LPS + Bz-ATP induced IL-1β release, ELISA)
Assay type: cell-based
Details: compound 10 μM, LPS 30 ng/ml, Bz-ATP 0.5 mM
Reported metric: PBMC 10 μM (% control)

# count of solved cases: 5
1. CC1c2ncn(-c3ccc(F)cn3)c2C=CN1C(=O)c1cccc(C(F)(F)F)c1Cl (centres unmarked); 14.1
2. CC1Cc2c(nnn2-c2cnccn2)CN1C(=O)c1cccc(C(F)(F)F)c1Cl (centres unmarked); −1.0
3. Cc1c(C(=O)N2CCc3c(ncn3-c3ccc(F)cn3)C2C)cccc1C(F)(F)F (centres unmarked); −1.6
4. C[C@H]1c2nnn(-c3ncc(F)cn3)c2CCN1C(=O)c1ccnc(C(F)(F)F)c1F (single isomer, unassigned); 116.4
5. O=C(c1cccc(C(F)(F)F)c1Cl)N1CCc2c(ncn2-c2ccccn2)C1CF (centres unmarked); 1.9

[a] CC1Cc2c(-c3ccnn3C)nn(C)c2CN1C(=O)c1cccc(C(F)(F)F)c1Cl (centres unmarked)
[b] CC1c2ncn(-c3ccc(F)cc3)c2CCN1C(=O)c1cccc(C(F)(F)F)c1F (centres unmarked)
Among a and b , whose measured PBMC 10 μM (% control) is the smaller figure? Provide the label of your selected option as the answer.
a

* * *

Molecular target: P2X7 (Homo sapiens (Human), UniProt Q99572)
Experiment: Ca2+ flux (FLIPR) in 1321N1 cells expressing recombinant human P2X7 channel
Type: cell-based
Conditions: 250 μM BzATP
pIC50: −log10 of the molar value.
Reported metric: pIC50

# count of solved cases: 4
1) CCOC(=O)C1c2ncn(-c3ccccn3)c2CCN1C(=O)c1cccc(Cl)c1Cl (stereo not drawn); 6.95
2) CC1c2ncn(-c3ccc(F)cn3)c2CCN1C(=O)c1ccc(F)cc1Cl (stereo not drawn); 5.62
3) O=C(c1cccc(C(F)(F)F)c1Cl)N1CCc2c(ncn2-c2ccn[nH]2)C1; 7.91
4) CC1Cc2c(-c3ccn[nH]3)n[nH]c2CN1C(=O)c1ccc(Cl)cc1Cl (stereo not drawn); 6.22

[a] O=C(c1ccc(Cl)cc1F)N1CCc2c(nnn2-c2cnccn2)C1
[b] O=C(c1cccc(Cl)c1Cl)N1CCc2c(ncn2-c2ccccn2)C1
[c] O=C(c1cccc(C(F)(F)F)c1Cl)N1CCc2c(nc(C(F)(F)F)n2-c2ccccc2)C1
[d] O=C(c1cccc(C(F)(F)F)c1F)N1CCc2c(ncn2-c2ccn[nH]2)C1
[e] O=C(c1ccc(Cl)cc1Cl)N1CCc2c(ncn2-c2ccc(F)cn2)C1
Arrange items by their pIC50 values in increasing order. The reply should contain the labels ordered as requested.
e, a, d, b, c
(e: 5.95, a: 6.21, d: 6.42, b: 7.33, c: 7.84)

* * *

Molecular target: P2X7 (Homo sapiens (Human), UniProt Q99572)
Assay: Ca2+ flux (FLIPR) in 1321N1 cells expressing recombinant human P2X7 channel;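 further: Calcium-4 dye-loaded cells exposed to compound for 30 min before agonist addition, fluorescence change read 180 s after agonist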
Type: cell-based
Details: 250 μM BzATP
pIC50: −log10 of the molar value.
Reported metric: pIC50

# count of solved cases: 5
1) Cc1cncc(-n2nnc3c2CCN(C(=O)c2cccc(Cl)c2Cl)C3C)n1 (centres unmarked); 6.23
2) C[C@H]1Cc2c(nnn2-c2ncccn2)CN1C(=O)c1cccc(C(F)(F)F)c1Cl (single isomer, unassigned); 8.96
3) O=C(c1cccc(C(F)(F)F)c1Cl)N1CCc2c(ncn2-c2ccccn2)C1; 8.21
4) O=C(c1cccc(C(F)(F)F)c1Cl)N1C=Cc2c(nnn2-c2ccccn2)C1; 7.99
5) O=C(c1cccc(C(F)(F)F)c1F)N1CCc2c(nc(C(F)(F)F)n2-c2ccccc2)C1; 6.14

[a] Cc1c(C(=O)N2CCc3c(ncn3-c3ccc(F)cn3)C2C)cccc1C(F)(F)F (centres unmarked)
[b] O=C(c1cccc(C(F)(F)F)c1Cl)N1CCc2c(nnn2-c2cccc(F)n2)C1
Among a and b , whose measured pIC50 is the smaller figure? Provide the label of your selected option as the answer.
b
(b: 7.32, a: 7.79)

* * *

Molecular target: UniProtKB Q64663
Test: Ca2+ flux (FLIPR) in 1321N1 cells expressing recombinant rat P2X7 channel
Settings: 250 μM BzATP
Reported metric: IC50 (µM)

1. O=C(c1cccc(Cl)c1Cl)N1CCc2c(nnn2-c2ncccn2)C1; 0.0789

[A] Cc1nc2c(n1-c1ccccc1)CCN(C(=O)c1cccc(C(F)(F)F)c1Cl)C2
[B] CCOC(=O)C1c2ncn(-c3ccccc3)c2CCN1C(=O)c1cccc(C(F)(F)F)c1Cl (centres unmarked)
[C] CN(C)CC1c2ncn(-c3ccccn3)c2CCN1C(=O)c1cccc(C(F)(F)F)c1Cl (centres unmarked)
[D] CCC1c2ncn(-c3cnccn3)c2C=CN1C(=O)c1cccc(C(F)(F)F)c1Cl (centres unmarked)
Given 4 compounds, produce a descending ranking by IC50. The reply should contain the labels ordered as requested.
A, D, C, B

* * *

Target: rat P2X7 (Rattus norvegicus (Rat))
Assay: Ca2+ flux (FLIPR) in 1321N1 cells expressing recombinant rat P2X7 channel;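 further: Calcium-4 dye fluorescence change read 180 s after agonist addition, following 30 min cell preincubation with test compound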
Details: 250 μM BzATP
Reported metric: IC50 (nM)

# count of solved cases: 2
1. CCOC(=O)C1c2ncn(-c3cnccn3)c2CCN1C(=O)c1cccc(C(F)(F)F)c1Cl (centres unmarked); 16.5
2. CC1c2nnn(-c3ncccc3F)c2C=CN1C(=O)c1cccc(C(F)(F)F)c1Cl (centres unmarked); 154

[A] C[C@H]1c2nnn(-c3ccn(CCF)n3)c2CCN1C(=O)c1cccc(C(F)(F)F)c1Cl (single isomer, unassigned)
[B] O=C(c1cccc(C(F)(F)F)c1Cl)N1CCc2c(ncn2-c2ccn[nH]2)C1
[C] O=C(c1cccc(C(F)(F)F)c1Cl)N1CCc2c(ncn2-c2ccccn2)C1CF (centres unmarked)
[D] O=C(c1ccc(Cl)cc1F)N1CCc2c(nnn2-c2ccccn2)C1
Given 4 compounds, produce a descending ranking by IC50. The reply should contain the labels ordered as requested.
D, B, C, A
(D: 3350 nM, B: 324 nM, C: 65.5 nM, A: 5.4 nM)
